The reported measurements were obtained from patent US20120276102A1.

biological target: T1, rat IL-21R expressed on cells (rat); experiment: cell ELISA, CHO cells
T1 construct: whole, on cells
parameter.measured: A450 (13 nM Ab) (A450)
Field format: number, assumed A450, no unit text.

According to the records, this binder AbH (antibody, IgG1, V domains shown, As for AbA: IgG1/lambda, CDR3 graft, residue limits derived; also called VHP/VL19) VH: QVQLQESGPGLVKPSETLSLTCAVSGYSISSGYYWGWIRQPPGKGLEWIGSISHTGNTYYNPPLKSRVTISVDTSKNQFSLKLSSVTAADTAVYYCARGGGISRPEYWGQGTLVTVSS VL: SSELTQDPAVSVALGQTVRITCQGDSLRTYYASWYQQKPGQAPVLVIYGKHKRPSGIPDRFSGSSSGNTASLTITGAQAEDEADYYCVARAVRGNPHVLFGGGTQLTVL displays A450 (13 nM Ab) of 1.1

According to the records, this binder AbQ (antibody, human IgG1, V domains shown, CDR3 graft, residue limits derived as for m29; also called VH3/VL2; VH3DM/VL2) VH: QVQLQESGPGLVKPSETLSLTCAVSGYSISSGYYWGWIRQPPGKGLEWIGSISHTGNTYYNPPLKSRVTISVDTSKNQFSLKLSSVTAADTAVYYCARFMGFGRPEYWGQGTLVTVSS VL: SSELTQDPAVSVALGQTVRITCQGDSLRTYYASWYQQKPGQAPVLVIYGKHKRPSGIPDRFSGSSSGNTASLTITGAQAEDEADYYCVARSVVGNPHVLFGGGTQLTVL displays A450 (13 nM Ab) of 1.16

According to the records, this binder AbD (antibody, IgG1, V domains shown, As for AbA: IgG1/lambda, CDR3 graft, residue limits derived; also called VHP/VL13) VH: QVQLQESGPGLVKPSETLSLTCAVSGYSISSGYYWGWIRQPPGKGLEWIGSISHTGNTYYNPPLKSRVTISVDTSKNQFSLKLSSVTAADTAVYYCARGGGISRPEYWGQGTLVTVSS VL: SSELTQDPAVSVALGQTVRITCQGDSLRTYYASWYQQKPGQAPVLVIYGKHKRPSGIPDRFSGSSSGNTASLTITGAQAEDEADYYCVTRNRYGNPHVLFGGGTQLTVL displays A450 (13 nM Ab) of 0.874
